Hello, the source for this data is paper PMC7802073, in case you need it.

log10 Kd values for the compounds below.
- Target entity: BfrB (Pseudomonas aeruginosa, UniProt Q9HY79)
- Sequence (Q9HY79 whole entry): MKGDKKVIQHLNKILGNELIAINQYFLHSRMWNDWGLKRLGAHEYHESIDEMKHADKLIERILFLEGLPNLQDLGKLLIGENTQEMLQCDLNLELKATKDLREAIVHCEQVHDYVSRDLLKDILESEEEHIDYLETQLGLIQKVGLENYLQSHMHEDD
- Assay procedure: Dissociation constant (Kd) for BfrB by fluorescence polarization
- Assay type: binding
Response schema: value (number) is log10 of Kd in units of µM.

Some compounds with known log10 Kd results, for comparison:
[in] Quick one: log10 Kd for O=C1NC(=O)c2c(NCc3cc(O)cc(Cl)c3)cccc21 ?
[out] 1.04

[in] Now consider O=C1NC(=O)c2c(NCCCc3cc(O)cc(Cl)c3)cccc21 and answer again.
[out] -0.46

Continuing:
[in] Quick one: log10 Kd for O=C1NC(=O)c2c(NCc3c(O)cccc3Cl)cccc21 ?
[out] 0.78

[in] Now consider O=C1NC(=O)c2c(NCc3cccc(O)c3)cccc21 and answer again.
[out] 1.32

[in] Now consider O=C1NC(=O)c2c(NCCCc3cc(Cl)ccc3O)cccc21 and answer again.
[out] -0.66

---

pKd values for the molecules below.
- Target entity: BfrB (Pseudomonas aeruginosa, UniProt Q9HY79)
- Assay procedure: Dissociation constant (Kd) for BfrB by fluorescence polarization
- Type: binding
Quick note: pKd values are minus log10 of concentrations in mol/L.

[in] Quick one: pKd for O=C1NC(=O)c2c(NCCCc3cc(O)cc(O)c3)cccc21 ?
[out] 5.60

Continuing:
[in] Quick one: pKd for O=C1NC(=O)c2c(NCc3cccc(Cl)c3O)cccc21 ?
[out] 5.22

[in] Now consider O=C1NC(=O)c2c(NCCCc3cc(F)ccc3O)cccc21 and answer again.
[out] 6.37

[in] Now consider O=C1NC(=O)c2c(NCCCc3ccccc3O)cccc21 and answer again.
[out] 5.85

[in] Now consider O=C1NC(=O)c2c(NCc3cc(F)ccc3O)cccc21 and answer again.
[out] 5.15

[in] Now consider O=C1NC(=O)c2c(NCc3cc(Cl)ccc3O)cccc21 and answer again.
[out] 5.40
